Examples of binders with documented OD450 at 0.001 nM follow.
Molecular target: monkey CD19-his protein (monkey)
Experiment: ELISA, monkey CD19 coated
State the answer as a number, implicitly in OD450.

// below: answered binders
binder: FMC63.26-mIgG1 (antibody, V domains shown, Humanized FMC63; also called FMC63-L2H6) VH: EVTLKESGPVLVKPTETLTLTCTVSGFSLPDYGVSWIRQPPGKALEWLAVIWGSETTYYNSALKSRLTISKDTSKSQVVLTMTNMDPVDTATYYCAKHYYYGGSYAMDYWGQGTTVTVSS VL: DIQMTQSPSSLSASVGDRVTITCRASQDISKYLNWYQQKPGGAVKLLIYHTSRLHSGVPSRFSGSGSGTDYTLTISSLQPEDFATYYCQQGNTLPYTFGGGTKVEIKR
OD450 at 0.001 nM / OD450: 0.05
--
binder: FMC63.27-mIgG1 (antibody, V domains shown, Humanized FMC63; also called FMC63-L2H7) VH: EVTLKESGPVLVKPTETLTLTCTVSGVSLPDYGVSWIRQPPGKALEWLAVIWGSETTYYNSALKSRLTISKDNSKSQVVLTMTNMDPVDTATYYCAKHYYYGGSYAMDYWGQGTTVTVSS VL: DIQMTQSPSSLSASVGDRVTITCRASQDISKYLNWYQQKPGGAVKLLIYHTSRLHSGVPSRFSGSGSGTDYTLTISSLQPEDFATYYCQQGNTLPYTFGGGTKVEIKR
OD450 at 0.001 nM / OD450: 0.05
--
binder: FMC63.25-mIgG1 (antibody, V domains shown, Humanized FMC63; also called FMC63-L2H5) VH: EVTLKESGPVLVKPTETLTLTCTVSGFSLSDYGVSWIRQPPGKALEWLAVIWGSETTYYNSALKSRLTISKDTSKSQVVLTMTNMDPVDTATYYCAKHYYYGGSYAMDYWGQGTTVTVSS VL: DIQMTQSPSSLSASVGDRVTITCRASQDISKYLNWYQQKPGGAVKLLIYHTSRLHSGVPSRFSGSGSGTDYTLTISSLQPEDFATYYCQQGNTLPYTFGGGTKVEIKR
OD450 at 0.001 nM / OD450: 0.1

Q) Give OD450 at 0.001 nM for the following binder: FMC63-mIgG1 (antibody, V domains shown, Parent murine antibody; also called murine antibody FMC63) VH: EVKLQESGPGLVAPSQSLSVTCTVSGVSLPDYGVSWIRQPPRKGLEWLGVIWGSETTYYNSALKSRLTIIKDNSKSQVFLKMNSLQTDDTAIYYCAKHYYYGGSYAMDYWGQGTSVTVSS VL: DIQMTQTTSSLSASLGDRVTISCRASQDISKYLNWYQQKPDGTVKLLIYHTSRLHSGVPSRFSGSGSGTDYSLTISNLEQEDIATYFCQQGNTLPYTFGGGTKLEITR
A) 0.05
